# Tested on: Tetrahymena pyriformis
# method.description: 48 h IGC50 (-log10 mol/L); higher = more toxic
property.label: 48 h IGC50 (-log10 mol/L)
Answer as a number with no unit attached.

## Input Consider the molecule O=C/C=C/c1ccco1 and give its measured 48 h IGC50 (-log10 mol/L).
## Output 3.37

## Input Consider the molecule OCCCc1ccccc1 and give its measured 48 h IGC50 (-log10 mol/L).
## Output 2.79

## Input Consider the molecule O=[N+]([O-])c1cc(I)c(O)c(I)c1 and give its measured 48 h IGC50 (-log10 mol/L).
## Output 4.81

## Input Consider the molecule CC/C=C\CCO and give its measured 48 h IGC50 (-log10 mol/L).
## Output 2.19

## Input Consider the molecule CCC(=O)CC(=O)CC and give its measured 48 h IGC50 (-log10 mol/L).
## Output 2.62

## Input Consider the molecule Nc1ccc(Cl)c(Cl)c1Cl and give its measured 48 h IGC50 (-log10 mol/L).
## Output 4.35

## Input Consider the molecule Oc1cccc(I)c1 and give its measured 48 h IGC50 (-log10 mol/L).
## Output 4.12

* * *

# System: Daphnia magna
# method.description: 48 h LC50 (-log10 mol/L); higher = more toxic
Classes are defined on 48 h LC50 (-log10 mol/L) with ranges lower segment: < 4; middle segment: ≥ 4 and < 5; upper segment: ≥ 5

## Input Lab log: CC1(C)[C@@H]2CC[C@@]1(C)[C@H](OC(=O)CSC#N)C2 — assign 48 h LC50 (-log10 mol/L) category
## Output upper segment

## Input Lab log: ClC1=C(Cl)[C@]2(Cl)[C@@H]3[C@@H]4C[C@@H]([C@H]5O[C@@H]45)[C@@H]3[C@@]1(Cl)C2(Cl)Cl — assign 48 h LC50 (-log10 mol/L) category
## Output upper segment

## Input Lab log: Nc1cccc(Cl)c1 — assign 48 h LC50 (-log10 mol/L) category
## Output upper segment

## Input Lab log: CNc1ccccc1 — assign 48 h LC50 (-log10 mol/L) category
## Output upper segment

## Input Lab log: CCOP(=O)(OCC)OC(=CCl)c1ccc(Cl)cc1Cl — assign 48 h LC50 (-log10 mol/L) category
## Output upper segment

## Input Lab log: O=S1OC[C@@H]2[C@H](CO1)[C@]1(Cl)C(Cl)=C(Cl)[C@@]2(Cl)C1(Cl)Cl (some centres undefined) — assign 48 h LC50 (-log10 mol/L) category
## Output upper segment

## Input Lab log: CC(OC(=O)c1cc(Oc2ccc(C(F)(F)F)cc2Cl)ccc1[N+](=O)[O-])C(=O)O (centres undefined) — assign 48 h LC50 (-log10 mol/L) category
## Output middle segment

## Input Lab log: CN=C=S — assign 48 h LC50 (-log10 mol/L) category
## Output upper segment

## Input Lab log: C=C1C[C@]23C[C@@]1(O)CC[C@H]2[C@@]12C=C[C@H](O)[C@@](C)(C(=O)O1)[C@H]2[C@@H]3C(=O)O — assign 48 h LC50 (-log10 mol/L) category
## Output middle segment

## Input Lab log: CN(C)C(N)=S — assign 48 h LC50 (-log10 mol/L) category
## Output lower segment

## Input Lab log: CC(C)NCC(O)COc1cccc2[nH]c3ccccc3c12 (centres undefined) — assign 48 h LC50 (-log10 mol/L) category
## Output middle segment

## Input Lab log: ClCC(Cl)(Cl)Cl — assign 48 h LC50 (-log10 mol/L) category
## Output lower segment

## Input Lab log: CCCCN(CC)C(=O)SCCC — assign 48 h LC50 (-log10 mol/L) category
## Output middle segment

## Input Lab log: O=C(O)COc1ccc(Cl)cc1Cl — assign 48 h LC50 (-log10 mol/L) category
## Output lower segment

## Input Lab log: CCC1(c2ccccc2)C(=O)NC(=O)NC1=O — assign 48 h LC50 (-log10 mol/L) category
## Output lower segment

* * *

# Test system: Pimephales promelas
# method.description: 96 h LC50 (-log10 mol/L); higher = more toxic
property.label: 96 h LC50 (-log10 mol/L)
Answer as a number with no unit attached.

## Input Consider the compound O=Cc1cc(Br)ccc1O and give its measured 96 h LC50 (-log10 mol/L).
## Output 5.19

## Input Consider the compound Fc1ccc(Oc2ccc(F)cc2)cc1 and give its measured 96 h LC50 (-log10 mol/L).
## Output 5.26

## Input Consider the compound Oc1cc(Cl)c(Cl)cc1Cl and give its measured 96 h LC50 (-log10 mol/L).
## Output 5.27

* * *

# System: Daphnia magna
# method.description: 48 h LC50 (-log10 mol/L); higher = more toxic
property.label: 48 h LC50 (-log10 mol/L)
Answer as a number with no unit attached.

## Input Consider the molecule COC(=O)C1=C(C)NC(C)=C(C(=O)OCC(C)C)C1c1ccccc1[N+](=O)[O-] (stereo not drawn) and give its measured 48 h LC50 (-log10 mol/L).
## Output 4.07

## Input Consider the molecule CNC(N)=S and give its measured 48 h LC50 (-log10 mol/L).
## Output 3.98

## Input Consider the molecule Cc1ccc([N+](=O)[O-])cc1 and give its measured 48 h LC50 (-log10 mol/L).
## Output 4.01

## Input Consider the molecule C[C@]12C=CC(=O)C=C1C(Cl)=C[C@@H]1[C@@H]2[C@@H](O)C[C@@]2(C)[C@H]1CC[C@]2(O)C(=O)CO and give its measured 48 h LC50 (-log10 mol/L).
## Output 3.96

## Input Consider the molecule O=C1CN=C(c2ccccc2Cl)c2cc([N+](=O)[O-])ccc2N1 and give its measured 48 h LC50 (-log10 mol/L).
## Output 4.02

## Input Consider the molecule O=S1(=O)C=Cc2ccccc21 and give its measured 48 h LC50 (-log10 mol/L).
## Output 4.07

## Input Consider the molecule O=C(O)CNCP(=O)(O)O and give its measured 48 h LC50 (-log10 mol/L).
## Output 3.91

## Input Consider the molecule O=[N+]([O-])c1ccc(O)cc1 and give its measured 48 h LC50 (-log10 mol/L).
## Output 4.02

* * *

# Test system: Tetrahymena pyriformis
# method.description: 48 h IGC50 (-log10 mol/L); higher = more toxic
property.label: 48 h IGC50 (-log10 mol/L)
Answer as a number with no unit attached.

## Input Kindly state the measured 48 h IGC50 (-log10 mol/L) obtained for OCCCCc1ccccc1 with Tetrahymena pyriformis.
## Output 3.12

## Input Kindly state the measured 48 h IGC50 (-log10 mol/L) obtained for O=[N+]([O-])c1ccccc1F with Tetrahymena pyriformis.
## Output 3.23

## Input Kindly state the measured 48 h IGC50 (-log10 mol/L) obtained for O=Cc1c(O)cc(O)cc1O with Tetrahymena pyriformis.
## Output 3.13

## Input Kindly state the measured 48 h IGC50 (-log10 mol/L) obtained for N#Cc1ccccc1C#N with Tetrahymena pyriformis.
## Output 2.66

## Input Kindly state the measured 48 h IGC50 (-log10 mol/L) obtained for CCC/C=C/CO with Tetrahymena pyriformis.
## Output 2.53

## Input Kindly state the measured 48 h IGC50 (-log10 mol/L) obtained for CCCC(=O)NN with Tetrahymena pyriformis.
## Output 2.03

## Input Kindly state the measured 48 h IGC50 (-log10 mol/L) obtained for C1CSCCS1 with Tetrahymena pyriformis.
## Output 2.89

## Input Kindly state the measured 48 h IGC50 (-log10 mol/L) obtained for CC(=O)Nc1cccc(O)c1 with Tetrahymena pyriformis.
## Output 2.84

## Input Kindly state the measured 48 h IGC50 (-log10 mol/L) obtained for O=C1C=C(c2ccccc2)C(=O)C=C1c1ccccc1 with Tetrahymena pyriformis.
## Output 4.48

## Input Kindly state the measured 48 h IGC50 (-log10 mol/L) obtained for CCOc1cccc2ccccc12 with Tetrahymena pyriformis.
## Output 4.25

## Input Kindly state the measured 48 h IGC50 (-log10 mol/L) obtained for O=Cc1cc(Br)c(O)c(Br)c1 with Tetrahymena pyriformis.
## Output 3.89

## Input Kindly state the measured 48 h IGC50 (-log10 mol/L) obtained for O=Cc1ccc(O)cc1Cl with Tetrahymena pyriformis.
## Output 3.89

## Input Kindly state the measured 48 h IGC50 (-log10 mol/L) obtained for Oc1cc(Cl)c(O)cc1Cl with Tetrahymena pyriformis.
## Output 4.81

## Input Kindly state the measured 48 h IGC50 (-log10 mol/L) obtained for CC(Cl)C#N (stereo unspecified) with Tetrahymena pyriformis.
## Output 2.14

## Input Kindly state the measured 48 h IGC50 (-log10 mol/L) obtained for CCCCc1ccco1 with Tetrahymena pyriformis.
## Output 3.44

## Input Kindly state the measured 48 h IGC50 (-log10 mol/L) obtained for NC(=O)c1ccccc1N with Tetrahymena pyriformis.
## Output 2.13

## Input Kindly state the measured 48 h IGC50 (-log10 mol/L) obtained for O=[N+]([O-])c1cc(Br)ccc1O with Tetrahymena pyriformis.
## Output 4.87

## Input Kindly state the measured 48 h IGC50 (-log10 mol/L) obtained for CCCC#CCO with Tetrahymena pyriformis.
## Output 2.62

## Input Kindly state the measured 48 h IGC50 (-log10 mol/L) obtained for Fc1ccc(-c2ccccc2)cc1 with Tetrahymena pyriformis.
## Output 3.53

## Input Kindly state the measured 48 h IGC50 (-log10 mol/L) obtained for Oc1ccc(-c2ccccc2)cc1 with Tetrahymena pyriformis.
## Output 4.39

## Input Kindly state the measured 48 h IGC50 (-log10 mol/L) obtained for O=[N+]([O-])c1ccc(CCl)cc1 with Tetrahymena pyriformis.
## Output 4.18

## Input Kindly state the measured 48 h IGC50 (-log10 mol/L) obtained for CCCCCCCCCCCC(C)O (stereo unspecified) with Tetrahymena pyriformis.
## Output 5.17

## Input Kindly state the measured 48 h IGC50 (-log10 mol/L) obtained for O=Cc1ccccn1 with Tetrahymena pyriformis.
## Output 2.86

## Input Kindly state the measured 48 h IGC50 (-log10 mol/L) obtained for O=C1C=Cc2ccccc2C1=O with Tetrahymena pyriformis.
## Output 6.2

## Input Kindly state the measured 48 h IGC50 (-log10 mol/L) obtained for CCC=CCCC=CC=O with Tetrahymena pyriformis.
## Output 4.34

## Input Kindly state the measured 48 h IGC50 (-log10 mol/L) obtained for CC(C)CN with Tetrahymena pyriformis.
## Output 2.74

## Input Kindly state the measured 48 h IGC50 (-log10 mol/L) obtained for O=Cc1cccc([N+](=O)[O-])c1O with Tetrahymena pyriformis.
## Output 3.87

## Input Kindly state the measured 48 h IGC50 (-log10 mol/L) obtained for CCCCCBr with Tetrahymena pyriformis.
## Output 3.48

## Input Kindly state the measured 48 h IGC50 (-log10 mol/L) obtained for CC(C)(C)OC(=O)CCl with Tetrahymena pyriformis.
## Output 3.85

## Input Kindly state the measured 48 h IGC50 (-log10 mol/L) obtained for Clc1ccc(Cl)cc1 with Tetrahymena pyriformis.
## Output 3.53

## Input Kindly state the measured 48 h IGC50 (-log10 mol/L) obtained for COC(=O)CCCCCCCCCCCC(=O)OC with Tetrahymena pyriformis.
## Output 4.65

## Input Kindly state the measured 48 h IGC50 (-log10 mol/L) obtained for O=C(CBr)c1ccccc1 with Tetrahymena pyriformis.
## Output 5.82

## Input Kindly state the measured 48 h IGC50 (-log10 mol/L) obtained for C#Cc1ccccc1 with Tetrahymena pyriformis.
## Output 2.86

## Input Kindly state the measured 48 h IGC50 (-log10 mol/L) obtained for CCCCOc1ccc(O)cc1 with Tetrahymena pyriformis.
## Output 3.7

## Input Kindly state the measured 48 h IGC50 (-log10 mol/L) obtained for C#CCCCCO with Tetrahymena pyriformis.
## Output 1.71

## Input Kindly state the measured 48 h IGC50 (-log10 mol/L) obtained for NC(=O)c1ccc(Cl)cc1 with Tetrahymena pyriformis.
## Output 3.09

## Input Kindly state the measured 48 h IGC50 (-log10 mol/L) obtained for O=[N+]([O-])c1ccc(Oc2ccccc2)cc1 with Tetrahymena pyriformis.
## Output 4.58

## Input Kindly state the measured 48 h IGC50 (-log10 mol/L) obtained for CCCCCN=C=S with Tetrahymena pyriformis.
## Output 4.71

## Input Kindly state the measured 48 h IGC50 (-log10 mol/L) obtained for CCOC(=O)C(Br)CBr (stereo unspecified) with Tetrahymena pyriformis.
## Output 5.21

## Input Kindly state the measured 48 h IGC50 (-log10 mol/L) obtained for NC(=O)c1cccs1 with Tetrahymena pyriformis.
## Output 2.03

## Input Kindly state the measured 48 h IGC50 (-log10 mol/L) obtained for O=C(O)c1cccc(Cl)c1 with Tetrahymena pyriformis.
## Output 2.87

## Input Kindly state the measured 48 h IGC50 (-log10 mol/L) obtained for N#Cc1ccccc1Cl with Tetrahymena pyriformis.
## Output 3.28

## Input Kindly state the measured 48 h IGC50 (-log10 mol/L) obtained for O=C(/C=C/c1ccccc1)N=C=S with Tetrahymena pyriformis.
## Output 3.29

## Input Kindly state the measured 48 h IGC50 (-log10 mol/L) obtained for N#CCc1ccc(Cl)cc1 with Tetrahymena pyriformis.
## Output 3.66

## Input Kindly state the measured 48 h IGC50 (-log10 mol/L) obtained for COC(=O)c1ccc(Br)cc1 with Tetrahymena pyriformis.
## Output 3.6

## Input Kindly state the measured 48 h IGC50 (-log10 mol/L) obtained for C=CCOC(=O)C=C with Tetrahymena pyriformis.
## Output 3.68
